Listed here: items and their measured Population Pyknosed Nuclei (%).
Test system: Fibroblast
Assay: Multiplex assay against human fibroblast
Format: toxicity, cell-based
Conditions: 12 h, 1 µM, compound concentration 1 uM, replicate 1
OBSERVED PROPERTY: Population Pyknosed Nuclei (%)

- COMPOUND: "Cc1nc(N2CC[C@H](O)C2)ncc1-c1cc(C(F)(F)F)cc2[nH]ncc12"
  OBSERVED PROPERTY: "Population Pyknosed Nuclei (%)"
  UOM: "%"
  OBSERVED VALUE: 18
- COMPOUND: "CC(C)NC(=O)N1CC[C@H](NC2=Nc3cc(F)ccc3N(CC(F)F)c3ccc(Cl)cc32)C1"
  OBSERVED PROPERTY: "Population Pyknosed Nuclei (%)"
  UOM: "%"
  OBSERVED VALUE: 42
- COMPOUND: "C=CC(=O)Nc1ccc2[nH]c(=O)n(C3CCN(Cc4ccc(-c5nc6cc[nH]c(=O)c6cc5-c5ccccc5)cc4)CC3)c2c1"
  OBSERVED PROPERTY: "Population Pyknosed Nuclei (%)"
  UOM: "%"
  OBSERVED VALUE: 17
- COMPOUND: "CNC(=O)Nc1ccc(-c2nc(N3CC4CCC(C3)O4)c3cnn(C4CCC5(CC4)OCCO5)c3n2)cc1"
  OBSERVED PROPERTY: "Population Pyknosed Nuclei (%)"
  UOM: "%"
  OBSERVED VALUE: 28
- COMPOUND: "COc1ccc(-c2ccc3ncc4c(c3c2)n(-c2ccc(N3CCNCC3)c(C(F)(F)F)c2)c(=O)n4C)cn1.O=C(O)/C=C\\C(=O)O"
  OBSERVED PROPERTY: "Population Pyknosed Nuclei (%)"
  UOM: "%"
  OBSERVED VALUE: 50
- COMPOUND: "O=C(c1cc2c(cc1F)OC(c1ccc(F)cc1)(c1ccc(Cl)cc1Cl)O2)N1CCOCC1 (stereo not drawn)"
  OBSERVED PROPERTY: "Population Pyknosed Nuclei (%)"
  UOM: "%"
  OBSERVED VALUE: 34
- COMPOUND: "O=c1[nH]c2ccccc2n1C1CCN(Cc2ccc(-c3[nH]c4cc5ncnc5cc4nc3-c3ccccc3)cc2)CC1"
  OBSERVED PROPERTY: "Population Pyknosed Nuclei (%)"
  UOM: "%"
  OBSERVED VALUE: 11
- COMPOUND: "CCCSc1nc(N[C@@H]2C[C@H]2c2ccc(F)c(F)c2)c2nnn([C@@H]3C[C@H](OCCO)[C@@H](O)[C@H]3O)c2n1"
  OBSERVED PROPERTY: "Population Pyknosed Nuclei (%)"
  UOM: "%"
  OBSERVED VALUE: 33

###

Test system: HEK-293T
Test: Multiplex assay against HEK293T;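 further: share of the cells with healthy nuclei that show this phenotype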
Format: toxicity, cell-based
Details: human, 12 h, 10 µM, compound concentration 10 uM, replicate 2
// reported Population Tubulin-Different-Phenotype (%) for each item listed
OBSERVED PROPERTY: Population Tubulin-Different-Phenotype (%)

- COMPOUND: "O=c1cc(N2CCOCC2)oc2c(-c3cccc4c3sc3ccccc34)cccc12"
  OBSERVED VALUE: 83
- COMPOUND: "COC(=O)C1=C(C)NC(C)=C(C(=O)OCCCN2CCC(c3ccccc3)(c3ccccc3)CC2)[C@H]1c1cccc([N+](=O)[O-])c1"
  OBSERVED VALUE: 33
- COMPOUND: "CCCSc1nc(N[C@@H]2C[C@H]2c2ccc(F)c(F)c2)c2nnn([C@@H]3C[C@H](OCCO)[C@@H](O)[C@H]3O)c2n1"
  OBSERVED VALUE: 93
- COMPOUND: "COc1cc(Nc2nccc(-c3cnn4nc(OC)ccc34)n2)cc(C(F)(F)F)c1"
  OBSERVED VALUE: 33
- COMPOUND: "COc1ccccc1CN[C@H]1C2CCN(CC2)[C@H]1C(c1ccccc1)c1ccccc1"
  OBSERVED VALUE: 74
- COMPOUND: "CC(C)CC(=O)Nc1[nH]nc2c1CN(C(=O)C1CCN(C)CC1)C2(C)C"
  OBSERVED VALUE: 2
- COMPOUND: "Cl.O=C(O)c1cc(-c2ccc(C3CCNCC3)cc2)c2ccc(-c3ccc(C(F)(F)F)cc3)cc2c1"
  OBSERVED VALUE: 66
- COMPOUND: "CCc1ccc(OCc2ccccc2C(=O)Nc2ccc3nc(C)cc(N)c3c2)cc1.Cl"
  OBSERVED VALUE: 41
- COMPOUND: "O=c1[nH]c2ccccc2n1C1CCN(Cc2ccc(-c3[nH]c4cc5ncnc5cc4nc3-c3ccccc3)cc2)CC1"
  OBSERVED VALUE: 86
- COMPOUND: "CCOC(=O)Nc1cc(-c2ccc(C)c(NS(C)(=O)=O)c2)nn2c(C)nnc12"
  OBSERVED VALUE: 1
- COMPOUND: "COc1ccc(-c2ccc3ncc4c(c3c2)n(-c2ccc(N3CCNCC3)c(C(F)(F)F)c2)c(=O)n4C)cn1.O=C(O)/C=C\\C(=O)O"
  OBSERVED VALUE: 66
- COMPOUND: "O=C(c1cc2c(cc1F)OC(c1ccc(F)cc1)(c1ccc(Cl)cc1Cl)O2)N1CCOCC1 (centres undefined)"
  OBSERVED VALUE: 83
- COMPOUND: "C=CC(=O)Nc1ccc2[nH]c(=O)n(C3CCN(Cc4ccc(-c5nc6cc[nH]c(=O)c6cc5-c5ccccc5)cc4)CC3)c2c1"
  OBSERVED VALUE: 82
- COMPOUND: "COc1cc2ncn(-c3cc(OCc4ccccc4C(F)(F)F)c(C(N)=O)s3)c2cc1OC [GW843682X]"
  OBSERVED VALUE: 99
